Please go through the items and note down their TGI.
# Tested on: MOLT-4 leukemia
# method: NCI tumour cell line growth inhibition, 48 h

// output TGI; input CCCCCCCCCCCCCCC[C@@H](O)C[N+](C)(C)CCO ; system MOLT-4 leukemia
> 24.5 µM

Report TGI from MOLT-4 leukemia testing of O=C(NCc1cccs1)OC1CC2CCC1C2 (stereo not given)
> 100 µM

Param request: TGI | system MOLT-4 leukemia | item C[C@]12CC/C(=N\OC(=O)Nc3ccccc3)C=C1CC[C@@H]1C2CC[C@@]2(C)C1CC[C@@H]2OC(=O)Nc1ccccc1 (stereo not given in full)
> 100 µM

Write TGI of O=C1c2ccccc2-n2c1nc1cc(Cl)ccc1c2=O ; system used: MOLT-4 leukemia
> 100 µM

Provide TGI, tested on MOLT-4 leukemia, for COc1ccc(C(=O)C(CC2C(=O)CC(C)(C)C(C(=O)C(=O)Nc3c(C)cccc3C)C2=O)c2ccc(OC)cc2)cc1 (stereo not given) .
> 100 µM

# lookup: MOLT-4 leukemia TGI, key = O=C(O)C1CCCCC1C(=O)Nc1nc2ccccc2[nH]1 (stereo not given)
> 100 µM

Answer briefly: TGI recorded on MOLT-4 leukemia for COC(=O)c1c2c(cc3c1CC1(C3)Cc3ccc4c(c3C1=O)CCC4)CCC2 (stereo not given)
> 100 µM

Answer with TGI of COc1cc(/C=N/Nc2ncnc3c2cnn3Cc2ccccc2)ccc1O measured for MOLT-4 leukemia.
> 25 µM

Give MOLT-4 leukemia TGI for the following compound: CC(C)N(C(=O)c1ccc(NCc2cc(O)ccc2O)cc1)C(C)C
> 100 µM

Please respond with reported TGI (system MOLT-4 leukemia) for CCCCCCCSCC1OC(n2cnc3c(N)ncnc32)C(O)C1O (stereo not given) .
62.4 µM

----------
# System: RXF 393 renal
# method: NCI tumour cell line growth inhibition, 48 h; in the data active means GI50 below about 0.43 µM; inactive means the rest
One label from this list, please: 1 (yes) = active, 0 (no) = inactive

Called result for C=CCCC(O)c1ccc(CCCCCCCCCCC)o1 (stereo not given)
0 (no)

Recorded test call requested for COc1ccc2cc(C(=O)/C=C/c3ccco3)ccc2c1
0 (no)

Recorded test call requested for O=C1C(Cl)=C(Nc2ccccn2)C(=O)c2ccccc21
0 (no)

Query: recorded result category for O=C(OC(CNc1c(C(=O)c2ccccc2)c(=O)n(Cc2ccccc2)c(=O)n1Cc1ccccc1)CN1CCCCC1)c1ccccc1 (stereo not given) in this test
0 (no)

Lab log entry: COc1cc(/C=N/Nc2ncnc3c2cnn3Cc2ccccc2)ccc1O — outcome as called in the assay?
0 (no)

Hi team, can someone confirm the assay call for CC(=O)Nc1ccc(S(=O)(=O)c2ccc(NC(C)=O)cc2)cc1 ?
0 (no)

I would be grateful if you could indicate the recorded call for CCc1cccc(CC)c1NC(=O)c1ccn2c1CCc1cnc(Nc3ccc(N4CCN(C)CC4)cc3OC)nc1-2 .
0 (no)

Give the logged outcome of this assay for the following compound: COc1cc(CCNc2nc3cc(N)cc(N)c3nc2-c2ccccc2)cc(OC)c1
0 (no)

What call does the record list for Cc1cccc2c1NC(=O)C2(c1ccc(O)cc1)c1ccc(O)cc1 ?
1 (yes)

Just curious, what result did CN1CCN(CCCOc2ccc3nc(Nc4ccc(C(F)(F)F)c(Cl)c4)ccc3c2)CC1 get here?
0 (no)

I'd appreciate the recorded outcome for CNC(=O)c1c(NC(=O)c2ccc(C(C)C)cc2)sc2c1CCC(=O)C2 from this test.
1 (yes)

In this assay, the call recorded for Cc1nn(-c2ccccc2)c(C)c1/C=N/N1CCN(Cc2ccccc2)CC1 was what?
0 (no)

Give the logged outcome of this assay for the following compound: O=C1C(Cl)=C(Nc2cccc(O)c2)C(=O)N1c1ccc(Cl)cc1Cl
0 (no)

Name the outcome recorded for CC(C)NCCCCCNc1cc(O)cc2cccnc12 in the assay.
0 (no)

Recorded test call requested for COCO[C@@H]1CC2C=Nc3cc(OCc4ccccc4)c(OC)cc3C(=O)N2C1 (stereo not given in full)
1 (yes)
